Could you please report measured protein stability index for the items listed next?
B1: INTS3 (parent)
chain: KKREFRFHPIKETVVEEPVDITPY

Variants of: B1
PROTOCOL SUMMARY: protein stability index of a GFP-peptide fusion (GPS, HEK-293T) (PSI 1-6); higher = more stable;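 further: lentivirally expressed fusions sorted by FACS into six bins by GFP to DsRed ratio, PSI derived from sequencing read proportions per bin multiplied by bin number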
MEASUREMENT CONDITIONS: c terminus: a fixed tail appended
The reply should be a number, written without any unit.

Return reported protein stability index; argument: F7N
4.91

Reported protein stability index for E16W : what is it?
2.1

For E16M , what is its reported protein stability index?
1.41

Consider the variant P9W and give its measured protein stability index.
1.81

Look up protein stability index: F5C
4.39

Request the reported protein stability index associated with E12P
1.92

Need protein stability index, item E17S
2.24

Can you look up the measured protein stability index of Y24H for me?
1.99

For the variant shown here, P9K , give the reported protein stability index.
2.59

Entry under review: K1T . Reported protein stability index?
2.01

Entry F7R : reported protein stability index = ?
4.6

Suppose we examine the variant R3K ; what protein stability index value has been reported?
2.46

Given R6H , state its recorded protein stability index.
4.52

Fill in: protein stability index of K11V is ___
2.36

Could you share which protein stability index value was measured for E17L ?
2.15

Given P18E , state its recorded protein stability index.
2.05

For the variant shown here, E16F , give the reported protein stability index.
2.4

State the recorded protein stability index for this entry: K1N
1.94

Recorded protein stability index of F7L , please.
4.21

# get_value(readout='protein stability index', item= E4G )
1.54

// query protein stability index value for entry V15T
1.75

Reported protein stability index for I21G : what is it?
1.49

# get_value(readout='protein stability index', item= E16C )
2.46

Given Y24R , state its recorded protein stability index.
1.47

Need protein stability index of D20S , thanks.
1.04

Quick check: protein stability index of R3M ?
1.43

Which protein stability index reading was recorded for the variant T22I ?
1.96

Entry F5N : reported protein stability index = ?
4.53

Need protein stability index, item K1G
1.69

// protein stability index lookup, key: V19K
1.88

Recorded protein stability index for H8P , please?
4.58

Value lookup for protein stability index; key = K1D
2.01

protein stability index lookup needed for E4M , thanks.
2.04

Give the measured protein stability index of D20T .
1.67

Need protein stability index, item K11F
2.56

Recorded protein stability index for F5R , please?
4.56

Look at this variant and give its reported protein stability index. T22M
1.89

Entry V14K has what protein stability index?
1.53

Look up protein stability index for this variant: R3L
1.61

# lookup: protein stability index of T13W
2.56

Tell me the measured protein stability index of V15S , please.
1.58

For V14D , what is its reported protein stability index?
2.58

Which protein stability index is reported for this variant? T22Q
1.93

Bench note: what protein stability index did K2E show?
2.55

Sample R3P — what was its protein stability index?
1.66

I have this variant here, I21K , and I need its recorded protein stability index.
2.02
